measured.target: rat CYP3A2, Cyp3a2 (gene 266682)
method: NVS_ADME_rCYP3A2: NovaScreen (NVS) CYP450-related Enzyme Activity (ADME) Assay for rat CYP3A2 (AID 2283128)
Activity calls are given as the source filed them. The calls were made as follows: active = hit-call score of the fitted dose curve at least 0.9, where 1 is the maximum; inconclusive = response in the unintended direction; inactive = score below 0.9.
Result category, one only: active, inactive

Examples from the recorded data:
Q: Could you check what this test reported for FC(F)C(F)(F)OCC(Cn1cncn1)c1ccc(Cl)cc1Cl (centres undefined) ?
Result: active

Q: Assay result, entry `CN(C)NC(=O)CCC(=O)O` — outcome?
Result: inactive

Q: # fetch the recorded call for `CCOP(=S)(OCC)Oc1ccc([N+](=O)[O-])cc1` here
Result: active

---
Q: Kindly provide the recorded test outcome for the following compound: CC(C1CC1)C(O)(Cn1cncn1)c1ccc(Cl)cc1 (centres undefined)
Result: active

###

Tested on: guinea pig Dopamine Transporter (DAT), gene 100714898
method: NVS_TR_gDAT: NovaScreen (NVS) Transporter Assay for guinea pig Dopamine Transporter (DAT) (AID 2283369);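 also: active compounds lower bound radioligand signal relative to DMSO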
Results filed as inconclusive are left out. Calls of active or inactive are those of the source. Rule for the calls: active = hit-call score of the fitted dose curve at least 0.9, where 1 is the maximum; inconclusive = response in the unintended direction; inactive = score below 0.9.
Please reply with one of these outcomes: true (1) (active), false (0) (inactive)

Here's what some known entries look like.
Q: # fetch the recorded call for C#CCC1=C(C)C(OC(=O)C2C(C=C(C)C)C2(C)C)CC1=O (centres undefined) here
Result: true (1)

Q: # lookup: test call for `C=C(C)[C@H]1Cc2c(ccc3c2O[C@@H]2COc4cc(OC)c(OC)cc4[C@@H]2C3=O)O1`
Result: false (0)

Q: Dear colleague, could you share the recorded outcome for `CCCCOC(=O)c1ccccc1C(=O)O` when you have a moment?
Result: false (0)

Shift focus to the following entry.
Q: Hi team, can someone confirm the assay call for `CCCOCC(=Nc1ccc(Cl)cc1C(F)(F)F)n1ccnc1` ?
Result: false (0)

###

Read-out: Ezrin (EZR), EZR (gene 7430)
method: LTEA_HepaRG_EZR: Life Technologies and Expression Analysis (LTEA) Assay for Ezrin (EZR) using HepaRG (AID 2283491)
setup.conditions: mRNA level, 48 h; actives raise or lower the signal
Activity calls are given as the source filed them. How the source made its calls: active means hit-call score of the fitted dose curve at least 0.9, where 1 is the maximum; inactive means score below 0.9.
Returns: one label drawn from 1.0 for active, 0.0 for inactive

Known results for molecules:
Q: I would be grateful if you could indicate the recorded call for `N#CSCSC#N` .
Result: 0.0

Q: What did the test return for `CC1(C(=O)Nc2ccc(O)c(Cl)c2Cl)CCCCC1` ?
Result: 0.0

Q: Can you look up the reported call for `CC[C@H](C)[C@H]1O[C@]2(C=C[C@@H]1C)C[C@@H]1C[C@@H](C/C=C(\C)[C@@H](O[C@H]3C[C@H](OC)[C@@H](O[C@H]4C[C@H](OC)[C@@H](NC)[C@H](C)O4)[C@H](C)O3)[C@@H](C)/C=C/C=C3\CO[C@@H]4[C@H](O)C(C)=C[C@@H](C(=O)O1)[C@]34O)O2` for me?
Result: 1.0

# evaluate next
Q: State the result this test recorded for `Cc1cc(C2CC2)nc(Nc2ccccc2)n1` .
Result: 0.0

###

measured.target: Myc proto-oncogene protein (Homo sapiens)
method: ATG_Myc_CIS: Attagene CIS-FACTORIAL HepG2 Assay for human Myelocytomatosis (Myc) Proto-Oncogene Transcription Factor (AID 2282990)
setup.conditions: HepG2, Attagene cis-reporter transcription factor activity; actives raise or lower the signal
Calls of active or inactive are those of the source. The calls were made as follows: active = hit-call score of the fitted dose curve at least 0.9, where 1 is the maximum; inactive = score below 0.9.
// one of active, inactive, no free text

Q: Record request — test call for CCOP(=O)(NC(C)C)Oc1ccc(SC)c(C)c1 (centres undefined)
Result: inactive

Q: Please let me know the test result on file for `CCC(CC)Nc1c([N+](=O)[O-])cc(C)c(C)c1[N+](=O)[O-]` .
Result: inactive

Q: Entry `C=C(C)[C@H]1Cc2c(ccc3c2O[C@@H]2COc4cc(OC)c(OC)cc4[C@@H]2C3=O)O1` : call = ?
Result: inactive

###

method: BSK_4H_Eotaxin3: BioMAP Diversity Plus: 4H Assay for Eotaxin 3 Biomarker Activity (AID 2283000);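 also: CCL26 protein level quantified by ELISA in parallel with SRB cytotoxicity check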
setup.conditions: primary human endothelial cells (HUVEC); actives raise or lower the signal
Activity calls are given as the source filed them. The calls were made as follows: active = hit-call score of the fitted dose curve at least 0.9, where 1 is the maximum; inactive = score below 0.9.
Log the outcome using a class from true (1) for active, false (0) for inactive

Some entries whose results are on file:
Q: Outcome logged for CCOP(=S)(OCC)OC(Cl)C(Cl)(Cl)Cl (configuration not stated) in this assay:
Result: false (0)

Q: Would you mind telling me which call this test gave `O=C(O)c1cc(Oc2ccc(C(F)(F)F)cc2Cl)ccc1[N+](=O)[O-]` ?
Result: false (0)

More entries:
Q: Test call for this compound, please: `CCCSP(=O)(OCC)SCCC`
Result: false (0)

Q: Could you kindly confirm the outcome this assay logged for `CCNc1nc(Cl)nc(NC(C)(C)C#N)n1` ?
Result: false (0)

###

measured.target: Hypoxia-inducible factor 1-alpha (Homo sapiens)
method: ATG_HIF1a_CIS: Attagene CIS-FACTORIAL HepG2 Assay for human Hypoxia Inducible Factor 1 (HIF1A) (AID 2282951)
setup.conditions: HepG2 Attagene cis-factorial HIF1a reporter transcription; actives raise or lower the signal
Calls of active or inactive are those of the source. Rule for the calls: active = hit-call score of the fitted dose curve at least 0.9, where 1 is the maximum; inactive = score below 0.9.
Can you answer with just one of these options? yes for active, no for inactive

Recorded results for 5 compounds are shown here.
Q: Which result was noted for this compound in the test: `COc1cccc(C(=O)NN(C(=O)c2cc(C)cc(C)c2)C(C)(C)C)c1C`
Result: no

Q: // param item: `CC1=NNC(=O)N(/N=C/c2cccnc2)C1` ; yields the recorded call
Result: no

Q: # fetch the recorded call for `COc1ccc(C(=CC(=O)N2CCOCC2)c2ccc(Cl)cc2)cc1OC` here
Result: yes

Q: Please let me know the test result on file for `CCOP(=S)(OCC)Oc1ccc2c(C)c(Cl)c(=O)oc2c1` .
Result: no

Q: So what was the verdict on CCc1cnc(C2=NC(C)(C(C)C)C(=O)N2)c(C(=O)O)c1 (stereo not given) in this test?
Result: no

Next:
Q: In this assay, the call recorded for `Cc1ccn2nc(S(=O)(=O)Nc3c(F)cccc3F)nc2n1` was what?
Result: no

Q: Could you please tell me the result logged for `CSc1nnc(C(C)(C)C)c(=O)n1N` in this assay?
Result: no

###

method: IUF_NPC2-5_viability_120hr: Viability Assessment at 120 hours in the Leibniz Research Institute for Environmental Medicine (IUF) Neural Progenitor Cell Migration and Differentiation Assay (NPC2-5) (AID 2284312)
Activity calls are given as the source filed them. How the source made its calls: active means hit-call score of the fitted dose curve at least 0.9, where 1 is the maximum; inactive means score below 0.9.
experimental.endpoint: AC50

Per the records, this compound ( CCOP(=S)(OCC)OC(Cl)C(Cl)(Cl)Cl (stereo unspecified) ) has AC50 equal to inactive

# AC50 (compound: `CON=C(C(=O)OC)c1ccccc1CON=C(C)c1cccc(C(F)(F)F)c1` ) is inactive

AC50 reported for this compound `CCOP(=O)(OCC)Oc1cc(C)nc(C(C)C)n1` : inactive

Lookup result for `CN1COCN(Cc2cnc(Cl)s2)C1=N[N+](=O)[O-]` ; measured AC50: inactive

Short answer for `C[N+]1(C)CCCCC1` : AC50 was inactive

AC50 recorded for this compound, COP(=O)(OC)C(O)C(Cl)(Cl)Cl (stereo unspecified) , is inactive

GET /value?item= `O=[N+]([O-])c1cc(C(F)(F)F)c(Cl)c([N+](=O)[O-])c1Nc1ncc(C(F)(F)F)cc1Cl` &field=AC50 returns 1400 nM (active)

compound `CCOP(=S)(OCC)Oc1cc(C)nc(C(C)C)n1` , AC50 observed: inactive

Per the record, `CSC1=N[C@@](C)(c2ccccc2)C(=O)N1Nc1ccccc1` has AC50 of inactive

Notebook: CCOP(=O)(NC(C)C)Oc1ccc(SC)c(C)c1 (stereo unspecified) , AC50 read as inactive

***
Noted for `CCOP(=S)(OCC)SCCSCC` : its AC50 reads inactive

###

Read-out: Cytochrome P450 2C19 (Homo sapiens) (UniProt P33261)
Sequence (P33261 whole entry, looked up): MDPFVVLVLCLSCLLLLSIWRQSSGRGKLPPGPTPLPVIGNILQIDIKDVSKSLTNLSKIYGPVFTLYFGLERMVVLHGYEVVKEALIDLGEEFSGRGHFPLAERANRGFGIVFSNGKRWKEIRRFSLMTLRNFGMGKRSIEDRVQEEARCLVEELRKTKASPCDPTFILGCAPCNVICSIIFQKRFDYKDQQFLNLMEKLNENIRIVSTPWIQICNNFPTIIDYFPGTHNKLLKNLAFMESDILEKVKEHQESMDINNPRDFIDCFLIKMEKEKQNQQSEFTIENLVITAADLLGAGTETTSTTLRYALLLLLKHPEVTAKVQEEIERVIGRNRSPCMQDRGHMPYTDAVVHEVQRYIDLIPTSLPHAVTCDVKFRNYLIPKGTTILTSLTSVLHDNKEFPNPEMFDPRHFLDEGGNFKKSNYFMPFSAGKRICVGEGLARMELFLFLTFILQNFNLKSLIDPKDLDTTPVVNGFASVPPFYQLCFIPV
method: LTEA_HepaRG_CYP2C19: Life Technologies and Expression Analysis (LTEA) Assay for CYP2C19 using HepaRG (AID 2283482)
setup.conditions: mRNA level, 48 h; actives raise or lower the signal
Calls of active or inactive are those of the source. Rule for the calls: active = hit-call score of the fitted dose curve at least 0.9, where 1 is the maximum; inactive = score below 0.9.
Please reply with one of these outcomes: label 1 (active), label 0 (inactive)

Q: Could you please tell me the result logged for `CCCCSP(=O)(SCCCC)SCCCC` in this assay?
Result: label 1

New cases:
Q: Hi, do you know how `CN1COCN(Cc2cnc(Cl)s2)C1=N[N+](=O)[O-]` came out in this test?
Result: label 0

Q: Record request — test call for COP(=O)(OC)OC(Br)C(Cl)(Cl)Br (configuration not stated)
Result: label 0

Q: Each compound tested received a call. Report the one for `CC(=NC#N)N(C)Cc1ccc(Cl)nc1` .
Result: label 0

Q: Status in this test for `CCC(CC)Nc1c([N+](=O)[O-])cc(C)c(C)c1[N+](=O)[O-]` ?
Result: label 1

Q: Assay outcome for `CCCCOC(=O)[C@@H](C)Oc1ccc(Oc2ccc(C#N)cc2F)cc1` : what was it?
Result: label 0

Source of measurements: PubChem BioAssay (EPA / NIEHS)
